Where do the numbers come from? From patent US20170145113A1.

# testTarget: T1, His-tagged human HtrA1 protease domain (human, UniProt Q92743 161-367)
# T1 construct: His-tagged protease domain; also called huHtrA1-PD-His; huHtrA1-PD
# T1 sequence (Q92743 other isoform, or with tags, fused parts or gaps limits assumed): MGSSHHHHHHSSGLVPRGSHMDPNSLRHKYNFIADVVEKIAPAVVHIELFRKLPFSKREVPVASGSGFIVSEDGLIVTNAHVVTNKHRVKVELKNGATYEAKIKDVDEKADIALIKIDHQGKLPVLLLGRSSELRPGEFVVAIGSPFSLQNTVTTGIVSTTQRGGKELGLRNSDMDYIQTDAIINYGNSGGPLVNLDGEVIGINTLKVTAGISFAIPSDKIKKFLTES
# protocolDescription: BIACORE SPR, Fab analyte, Human HtrA1-PD (N=2)
Provide the recorded Kd for the entries that follow.
Record the value in nM, omitting the unit from your answer.

### Prompt Consider the binder QP_EG (Fab, V domains shown, also called h15H6.v2 LC-N94Q LC-P95 HC-D55E HC-G56 Fab; copies: 1 + 1) VH: EVQLVQSGAEVKKPGASVKVSCKASGYTFTDSEMHWVRQAPGQGLEWIGGVDPETEGAAYNQKFKGRATITRDTSTSTAYLELSSLRSEDTAVYYCTRGYDYDYALDYWGQGTLVTVSS VL: DIQMTQSPSSLSASVGDRVTITCRASSSVNFIHWYQQKPGKAPKPLISATSNLASGVPSRFSGSGSGTDFTLTISSLQPEDFATYYCQQWSSQPWTFGQGTKVEIK . State its measured Kd.
### Response 0.8

### Prompt Specify Kd for EP_EG (Fab, V domains shown, also called h15H6.v2 LC-N94E LC-P95 HC-D55E HC-G56 Fab; copies: 1 + 1) VH: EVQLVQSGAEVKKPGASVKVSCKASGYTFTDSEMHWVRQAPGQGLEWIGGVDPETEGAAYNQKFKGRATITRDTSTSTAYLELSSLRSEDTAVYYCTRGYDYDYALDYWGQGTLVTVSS VL: DIQMTQSPSSLSASVGDRVTITCRASSSVNFIHWYQQKPGKAPKPLISATSNLASGVPSRFSGSGSGTDFTLTISSLQPEDFATYYCQQWSSEPWTFGQGTKVEIK and stop.
### Response 0.4

### Prompt Give the value of Kd reported for the following: SP_EG (Fab, V domains shown, also called h15H6.v2 LC-N94S LC-P95 HC-D55E HC-G56 Fab; copies: 1 + 1) VH: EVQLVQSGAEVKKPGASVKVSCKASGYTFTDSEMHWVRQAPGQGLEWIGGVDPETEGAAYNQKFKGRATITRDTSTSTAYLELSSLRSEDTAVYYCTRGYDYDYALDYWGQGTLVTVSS VL: DIQMTQSPSSLSASVGDRVTITCRASSSVNFIHWYQQKPGKAPKPLISATSNLASGVPSRFSGSGSGTDFTLTISSLQPEDFATYYCQQWSSSPWTFGQGTKVEIK
### Response 0.8

### Prompt Answer with reported Kd of h15H6.v2 Fab (Fab, V domains shown, Tested as Fab; also called parent; parental Fab) VH: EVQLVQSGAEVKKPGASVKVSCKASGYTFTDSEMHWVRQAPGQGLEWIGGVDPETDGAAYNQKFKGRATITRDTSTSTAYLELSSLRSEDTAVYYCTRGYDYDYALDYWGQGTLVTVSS VL: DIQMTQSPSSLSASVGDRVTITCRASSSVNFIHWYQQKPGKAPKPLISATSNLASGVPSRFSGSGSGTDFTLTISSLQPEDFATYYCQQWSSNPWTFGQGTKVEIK
### Response 0.4
